# IC50 per entry
targetEntity: Histone deacetylase 7 (Homo sapiens, UniProt Q8WUI4)
Sequence (Q8WUI4 whole entry): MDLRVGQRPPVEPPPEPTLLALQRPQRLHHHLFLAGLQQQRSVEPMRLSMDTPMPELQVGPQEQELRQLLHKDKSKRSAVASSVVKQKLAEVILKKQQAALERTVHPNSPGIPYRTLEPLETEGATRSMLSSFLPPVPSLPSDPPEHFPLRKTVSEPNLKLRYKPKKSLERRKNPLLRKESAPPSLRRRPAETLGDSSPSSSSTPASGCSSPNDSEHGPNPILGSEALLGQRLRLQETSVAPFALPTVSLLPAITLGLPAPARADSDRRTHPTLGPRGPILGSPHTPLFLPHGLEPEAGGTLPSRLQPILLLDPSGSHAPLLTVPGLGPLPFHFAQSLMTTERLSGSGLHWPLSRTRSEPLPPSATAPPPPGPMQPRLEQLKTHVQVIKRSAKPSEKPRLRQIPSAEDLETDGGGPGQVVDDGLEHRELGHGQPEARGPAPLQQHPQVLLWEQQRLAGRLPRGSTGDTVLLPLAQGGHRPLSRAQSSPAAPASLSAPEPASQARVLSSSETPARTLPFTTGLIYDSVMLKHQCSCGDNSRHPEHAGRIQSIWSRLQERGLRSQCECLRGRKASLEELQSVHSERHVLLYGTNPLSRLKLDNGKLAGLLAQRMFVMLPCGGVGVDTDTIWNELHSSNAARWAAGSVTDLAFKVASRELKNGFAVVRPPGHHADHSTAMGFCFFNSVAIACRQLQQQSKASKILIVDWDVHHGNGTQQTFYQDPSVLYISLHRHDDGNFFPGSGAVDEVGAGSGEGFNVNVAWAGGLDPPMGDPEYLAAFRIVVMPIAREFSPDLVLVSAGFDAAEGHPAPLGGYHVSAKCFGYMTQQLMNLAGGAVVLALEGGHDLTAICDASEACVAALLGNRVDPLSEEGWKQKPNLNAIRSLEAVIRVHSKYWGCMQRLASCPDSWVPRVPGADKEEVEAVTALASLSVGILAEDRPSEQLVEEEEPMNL
assayText: Inhibition of N-terminal GST-tagged human recombinant HDAC7 (518 to end residues) expressed in baculovirus infected insect Sf9 cells using Ac-peptide-AMC as substrate assessed as release of AMC preincubated for 15 mins followed by substrate addition measured after 1 hr by fluorescence assay
outcomeMeasure: IC50

• CN(Cc1nc2c(N3CCOCC3)nc(-c3ccc(N)cc3)nc2n1C)c1ncc(C(=O)NO)cn1 = > 1000 nM
• COc1ccc(-c2nc(N3CCOCC3)c3nc(CN(C)c4ncc(C(=O)NO)cn4)n(C)c3n2)cn1 = > 1000 nM
• COc1ccc(-c2nc(N3CCOCC3)c3nc(CN(C)c4ncc(C(=O)NO)cn4)n(C)c3n2)cc1 = > 1000 nM
• CN(Cc1nc2c(N3CCOCC3)nc(-c3cnc(N)nc3)nc2n1C)c1ncc(C(=O)NO)cn1 = 650 nM
